Reference for the values: the supplement of paper PMC12042874

- experimental-protocol: amyloid nucleation score (Sup35N fusion, yeast selection) (log enrichment); library NNK1; higher = more nucleation; inactive = no reads after selection;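 note: zero at mode of non-aggregating sequences after 7 days selection at 30°C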
Kind request: treat -0.2 as inclusive, so amyloid nucleation score at -0.2 or higher is fulfilled, anything lower is not fulfilled.

RCIPLNNNFYASKQLLMSME fulfilled
RLLFITYSMVSKYNKCLIRG fulfilled
HFGKRHSYRYLDDTCAQNLY not fulfilled
RSVCIVF fulfilled
WSNPPITCSSVGINHHVSVV fulfilled
MHYWGTGKHQINTWNMILFI fulfilled
WLNWSSYRRTISKLVRGFFS not fulfilled
TYPYFDWPFRTRRLMEVSET not fulfilled
IIGTPVPYLGVLKTFDIKYF fulfilled
LWDLKIAGRLNLEGCRCGLW fulfilled
ISCTNCLKCPLYTSFRPLLC fulfilled
HLVLFYVSLITFARYSFMGV fulfilled
TVKDNHVLEEFVTFYVVYKS fulfilled
DFSVQKSGSYQTEHYLVFRN fulfilled
RVTSNEKRNYRVSRICPHLT not fulfilled

* * *

- experimental-protocol: amyloid nucleation score (Sup35N fusion, yeast selection) (log enrichment); library NNK1; higher = more nucleation; inactive = no reads after selection
Kind request: treat 0.8 as inclusive, so amyloid nucleation score at 0.8 or higher is 1, anything lower is 0.

YFHPLTKLI 0
FWISRYVLQKDWKGWICTEL 0
VPGLRI 0
DIERMKVPELFCLLSLDTGP 0
DGAYWELSY 0
VKTNWLNWWLLNGLRASRCL 0
SNAIDRAHPYRFGFCVNDVQ 0
IFYFYFCRYLSIQMVILGVQ 1
IRLGHIQVFVSGRFENRLIF 0
IYVITVRPNVHNTLMHLIVT 0
IMCISFVFFNLKGYGGTG 1
PATMDLIVVPWITVLKEIN 0
HGCSSVILVGMRAEEIFLYY 1
KKVFFHKRVLSDARCKPVKS 0
IVNSKCRFWYYINGTVIFFL 1
LRKDGSGK 1
NDRFFGSKYCGVIVLSISDL 1
NSGFRAASS 1
VGAFVSRVSLLDADGLLLGS 0
RLYYLGMSGYLRHNPASCVL 0
SGGCMDSKLSAVG 1
CFGFFVWANHAYHAQRCVAS 1
KASCVVLAMLWLVLALGEPG 0
ADCGRSVLTKVKRCDTFFSG 0
HSIVDSRLSCICILSS 1
NREGCIMWHRRVLARRCLTS 0
QRQNVYVGGYIANMVHGSGC 1
EQASVIKDVYFPHILRLRMA 0
VWLWDLA 1
TYMTSTMQLRHTFFRSQANL 1
ILTLIMAL 0
TVLIILRALLNSSPKTFD 0
LVNWYTQILICTCPGHKLRR 1

* * *

- experimental-protocol: amyloid nucleation score (Sup35N fusion, yeast selection) (log enrichment); library NNK1; higher = more nucleation; inactive = no reads after selection
metric-name: amyloid nucleation score

RTGITNTKPTQWSYNQSLSS -0.291
GLKLKIREYSAFLCR -0.027
LPVLLSFVSYGS -0.162
RVDPLV inactive
FFFNCMRWSCMKVDHTGFVG -0.255
PKNGGQTMAYK -0.665
FTWWHIRGCGCCVACEGHRS 0.05
LLRNGFHSVLI 0.488
FGPMLHTLDLCWRGMWIS -1.56
QWLAVVVIKVGLTWQYRFGG 0.198
RALSVRSRQLG 0.135
YNMREVLSCKF -0.114
YVRGSGMAPGD inactive
SQVGALFDVPQSVNDSFKNM 0.399
GFLCQSRVLAML inactive
LPDVKCVLLLMLHLEASRSA -0.21
KILRYSTTGSSELEWWNMRS 0.069
HDFPIR inactive
GCNMII -0.34
LPTHHCGLNVSSDGSNSELR 0.068
GQGALDYF inactive
VVGFYEWGQSREISSLRGGC 0.382
LGTMSVYRRPRSMMGCRDQG 0.173
VNVITCLY -1.33
VFVICCKRREAG -0.295
ICLMFLSGTIDYYLY 0.111
YTQSWQ -0.309
REFGLLAWVELLFWATFR -0.676
TKCGMGYISGISSPASGQYG 0.767
NDDYHTLSQCACSFALRADG 1.08
LFSPMSILRFLFMYIAKVMD 0.213
AHGRHDLRWCLRSRDSMWRA 1.2
DGFMCFLYKLASQT 0.158
FGIIGEERNLRAAPMAGGRP -0.455
SGSWNMCNHVRVNCYAIDKV 0.167
QIHFFAFRFIGMVYFPRIGD 0.318
YRFWEI -0.25
MSLFNISSHSWLKFTLCVPG 1.17
